Consider the following compounds; for each one, report its pIC50.
- Test system: rabbit bladder strips
- assay-text: Organ bath, isolated rabbit bladder strips pre-contracted with K+ (50 mmol/l)
- Format: cell-based
- run-parameters: Oryctolagus cuniculus; rabbit bladder strips; read-out: IC50, relaxation of bladder strips
When answering, recall that pIC50 equals minus log10 of the concentration in mol/L, and write that number alone.

Prompt: # lookup: pIC50 of CCCc1nc(C)c2c(=O)[nH]c(-c3cc(S(=O)(=O)N4CCN(CC)CC4)ccc3OCC)nn12 [Vardenafil]
Completion: 5.77

Prompt: Any idea what pIC50 was measured for O=C(Nc1c(Cl)cncc1Cl)c1ccc(OC(F)F)c(OCC2CC2)c1 [Roflumilast] ?
Completion: 6.59
